Values were extracted from the supplement of paper PMC13386468.

molecular target: UniProt C6KSR5; experiment: IC50 for competition of protein binding to Kinobeads; conditions: assay detail: Kinobeads competition in P. falciparum blood-stage lysate;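 note: native unpurified kinases from lysate captured on beads bearing immobilized kinase inhibitors, with bead-bound kinases quantified by mass spectrometry across compound doses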

{"columns": ["molecule", "IC50"],
 "data": [
  ["O=c1[nH]c2ccc(Cl)cc2c(NC2CN3CCC2CC3)c1-c1nc2ccccc2[nH]1 (stereo unspecified) [CHIR-124]", "> 20 µM"]
]}

* * *

biological target: UniProt Q76NN6; assay: IC50 for competition of protein binding to Kinobeads; settings: assay detail: Kinobeads competition in P. falciparum blood-stage lysate

{"columns": ["compound", "IC50"],
 "data": [
  ["O=c1[nH]c2ccc(Cl)cc2c(NC2CN3CCC2CC3)c1-c1nc2ccccc2[nH]1 (stereo unspecified) [CHIR-124]", "> 20 µM"]
]}
